# Assayed system: Y5R (Homo sapiens)
# Experimental details: Ca flux assay (FLIPR), Y5R

Compound: CC[C@H](C)[C@H](NC(C)=O)C(=O)N[C@@H](CCCCN)C(=O)N1CCN(c2ncc3c(ncn3CC(=O)N[C@@H](CCCNC(=N)N)C(=O)N[C@@H](Cc3c[nH]cn3)C(=O)N[C@@H](Cc3ccc(O)cc3)C(=O)N[C@@H](CC(C)C)C(=O)N[C@@H](CC(N)=O)C(=O)N[C@@H](Cc3c[nH]c4ccccc34)C(=O)N[C@H](C(=O)N[C@H](C(=O)N[C@@H](CCCNC(=N)N)C(=O)N[C@@H](CCC(N)=O)C(=O)N(C)[C@@H](CCCNC(=N)N)C(=O)N[C@@H](Cc3ccc(O)cc3)C(N)=O)[C@@H](C)O)C(C)C)n2)CC1
Assayed system: Y5R (Homo sapiens)
EC50 [µM]: 1.1
--
Compound: CC[C@H](C)[C@H](NC(C)=O)C(=O)N[C@@H](CCCCN)C(=O)N1CC2CC1CC2c1ccc2ncn(CC(=O)N[C@@H](CCCNC(=N)N)C(=O)N[C@@H](Cc3c[nH]cn3)C(=O)N[C@@H](Cc3ccc(O)cc3)C(=O)N[C@@H](CC(C)C)C(=O)N[C@@H](CC(N)=O)C(=O)N[C@@H](Cc3c[nH]c4ccccc34)C(=O)N[C@H](C(=O)N[C@H](C(=O)N[C@@H](CCCNC(=N)N)C(=O)N[C@@H](CCC(N)=O)C(=O)N(C)[C@@H](CCCNC(=N)N)C(=O)N[C@@H](Cc3ccc(O)cc3)C(N)=O)[C@@H](C)O)C(C)C)c(=O)c2c1 (stereo partly drawn)
Assayed system: Y5R (Homo sapiens)
EC50 [µM]: 2.87
--
Compound: CC[C@H](C)[C@H](NC(C)=O)C(=O)N[C@@H](CCCCN)C(=O)N1CCN(c2nc(N)c3c(ncn3CC(=O)N[C@@H](CCCNC(=N)N)C(=O)N[C@@H](Cc3c[nH]cn3)C(=O)N[C@@H](Cc3ccc(O)cc3)C(=O)N[C@@H](CC(C)C)C(=O)N[C@@H](CC(N)=O)C(=O)N[C@@H](Cc3c[nH]c4ccccc34)C(=O)N[C@H](C(=O)N[C@H](C(=O)N[C@@H](CCCNC(=N)N)C(=O)N[C@@H](CCC(N)=O)C(=O)N(C)[C@@H](CCCNC(=N)N)C(=O)N[C@@H](Cc3ccc(O)cc3)C(N)=O)[C@@H](C)O)C(C)C)n2)CC1
Assayed system: Y5R (Homo sapiens)
EC50 [µM]: 3.3

----------
# Assayed system: UniProt Q15761
# Sequence (Q15761 1-445): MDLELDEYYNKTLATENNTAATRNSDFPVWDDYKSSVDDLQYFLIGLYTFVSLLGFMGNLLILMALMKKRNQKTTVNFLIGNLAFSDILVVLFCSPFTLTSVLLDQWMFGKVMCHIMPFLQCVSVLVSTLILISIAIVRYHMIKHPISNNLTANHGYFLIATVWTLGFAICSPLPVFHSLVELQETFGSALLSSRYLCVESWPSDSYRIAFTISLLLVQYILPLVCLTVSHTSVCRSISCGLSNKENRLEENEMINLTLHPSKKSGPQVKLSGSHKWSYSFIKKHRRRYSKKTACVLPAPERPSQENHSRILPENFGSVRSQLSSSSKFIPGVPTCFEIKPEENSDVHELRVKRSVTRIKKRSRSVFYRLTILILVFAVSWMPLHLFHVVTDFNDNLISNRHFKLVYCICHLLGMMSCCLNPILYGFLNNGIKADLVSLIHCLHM
# Experimental details: Ca flux assay (FLIPR), Y5R

Compound: CC[C@H](C)[C@H](NC(C)=O)C(=O)N[C@@H](CCCCN)C(=O)N1CCN(c2ccc3c(ccn3CC(=O)N[C@@H](CCCNC(=N)N)C(=O)N[C@@H](Cc3c[nH]cn3)C(=O)N[C@@H](Cc3ccc(O)cc3)C(=O)N[C@@H](CC(C)C)C(=O)N[C@@H](CC(N)=O)C(=O)N[C@@H](Cc3c[nH]c4ccccc34)C(=O)N[C@H](C(=O)N[C@H](C(=O)N[C@@H](CCCNC(=N)N)C(=O)N[C@@H](CCC(N)=O)C(=O)N(C)[C@@H](CCCNC(=N)N)C(=O)N[C@@H](Cc3ccc(O)cc3)C(N)=O)[C@@H](C)O)C(C)C)c2)CC1 [Example 6]
Assayed system: UniProt Q15761
EC50, µM: 10.7
